# System: HCoV-OC43 gRNA and sgRNA
# Type: binding
# conditions-used: type n_48_v; 48 hpi; OC43 Probe II capture on infected cells
endpoint-label: target (unweighted spectral count, OC43 Probe II)

molecule	test-result
HNRNPA0 (protein, UniProt Q13151 1-305, looked up) Heterogeneous nuclear …: MENSQLCKLFIGGLNVQTSESGLRGHFEAFGTLTDCVVVVNPQTKRSRCFGFVTYSNVEEADAAMAASPHAVDGNTVELKRAVSREDSARPGAHAKVKKLFVGGLKGDVAEGDLIEHFSQFGTVEKAEIIADKQSGKKRGFGFVYFQNHDAADKAAVVKFHPIQGHRVEVKKAVPKEDIYSGGGGGGSRSSRGGRGGRGRGGGRDQNGLSKGGGGGYNSYGGYGGGGGGGYNAYGGGGGGSSYGGSDYGNGFGGFGSYSQHQSSYGPMKSGGGGGGGGSSWGGRSNSGPYRGGYGGGGGYGGSSF	13
HNRNPH3 (protein, UniProt P31942 1-346, looked up) Heterogeneous nuclear …: MDWVMKHNGPNDASDGTVRLRGLPFGCSKEEIVQFFQGLEIVPNGITLTMDYQGRSTGEAFVQFASKEIAENALGKHKERIGHRYIEIFRSSRSEIKGFYDPPRRLLGQRPGPYDRPIGGRGGYYGAGRGSMYDRMRRGGDGYDGGYGGFDDYGGYNNYGYGNDGFDDRMRDGRGMGGHGYGGAGDASSGFHGGHFVHMRGLPFRATENDIANFFSPLNPIRVHIDIGADGRATGEADVEFVTHEDAVAAMSKDKNNMQHRYIELFLNSTPGGGSGMGGSGMGGYGRDGMDNQGGYGSVGRMGMGNNYSGGYGTPDGLGGYGRGGGGSGGYYGQGGMSGGGWRGMY	21
